Data provenance: patent US7521047

target: T1, human MHC class II DR protein (DRA*0101/DRB1*0401), purified from PRIESS cells (human, UniProt P01903 26-254; P01911 30-266, limits assumed); assay: SPR (BIAcore), MHCII on CM5 chip
T1 construct: mature; also called HLA-DR protein; MHCII
T1 MHC II alpha: not shown
T1 MHC II beta: not shown
REPORTED_METRIC: kon (M⁻¹ s⁻¹)
Give a bare numeral; the unit M⁻¹ s⁻¹ is implied.

The examples below pair each entry with its known result.
BINDER | kon, M⁻¹ s⁻¹
MS-GPC-8-6-19 Fab (Fab, V domains shown, Fab: VH-CH1 with FLAG tag and STREP tag II, VL-CL; VH residue 1 is Q in Fab) VH: QVQLKESGPALVKPTQTLTLTCTFSGFSLSTSGVGVGWIRQPPGKALEWLALIDWDDDKYYSTSLKTRLTISKDTSKNQVVLTMTNMDPVDTATYYCARSPRYRGAFDYWGQGTLVTVSS VL: DIVLTQPPSVSGAPGQRVTISCSGSESNIGSNYVAWYQQLPGTAPKLLIYDNNQRPSGVPDRFSGSKSGTSASLAITGLQSEDEADYYCQSYDYDHYVFGGGTKLTVLG | 110000
MS-GPC-8-27-10 Fab (Fab, V domains shown, Fab: VH-CH1 with FLAG tag and STREP tag II, VL-CL; VH residue 1 is Q in Fab) VH: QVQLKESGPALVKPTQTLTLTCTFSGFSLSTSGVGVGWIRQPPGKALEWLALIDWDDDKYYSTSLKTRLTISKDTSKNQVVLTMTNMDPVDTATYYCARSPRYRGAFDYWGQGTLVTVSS VL: DIVLTQPPSVSGAPGQRVTISCSGSESNIGANYVNWYQQLPGTAPKLLIYDNNQRPSGVPDRFSGSKSGTSASLAITGLQSEDEADYYCQSYDMNVHVFGGGTKLTVLG | 176000
MS-GPC-8-6-45 Fab (Fab, V domains shown, Fab: VH-CH1 with FLAG tag and STREP tag II, VL-CL; VH residue 1 is Q in Fab) VH: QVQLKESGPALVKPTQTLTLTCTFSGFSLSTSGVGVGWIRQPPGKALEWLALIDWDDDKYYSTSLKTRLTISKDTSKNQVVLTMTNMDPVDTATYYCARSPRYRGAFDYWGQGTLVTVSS VL: DIVLTQPPSVSGAPGQRVTISCSGSEPNIGSNYVFWYQQLPGTAPKLLIYDNNQRPSGVPDRFSGSKSGTSASLAITGLQSEDEADYYCQSYDYDHYVFGGGTKLTVLG | 120000

Reported kon of MS-GPC-8-18 Fab (Fab, V domains shown, Fab: VH-CH1 with FLAG tag and STREP tag II, VL-CL; VH residue 1 is Q in Fab) VH: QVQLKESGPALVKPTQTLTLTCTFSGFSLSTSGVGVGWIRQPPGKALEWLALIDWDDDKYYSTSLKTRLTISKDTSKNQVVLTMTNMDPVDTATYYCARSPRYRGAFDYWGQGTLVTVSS VL: DIVLTQPPSVSGAPGQRVTISCSGSSSNIGSNYVSWYQQLPGTAPKLLIYDNNQRPSGVPDRFSGSKSGTSASLAITGLQSEDEADYYCQSYDFSIYVFGGGTKLTVLG : 106000

MS-GPC-8-6-27 Fab (Fab, V domains shown, Fab: VH-CH1 with FLAG tag and STREP tag II, VL-CL; VH residue 1 is Q in Fab) VH: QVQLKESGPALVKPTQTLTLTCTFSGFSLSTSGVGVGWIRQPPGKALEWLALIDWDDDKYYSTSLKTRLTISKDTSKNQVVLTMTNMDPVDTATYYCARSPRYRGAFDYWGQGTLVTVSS VL: DIVLTQPPSVSGAPGQRVTISCSGSDSNIGANYVTWYQQLPGTAPKLLIYDNNQRPSGVPDRFSGSKSGTSASLAITGLQSEDEADYYCQSYDYDHYVFGGGTKLTVLG has a reported kon of 180000

Looking up MS-GPC-8-6-2 Fab (Fab, V domains shown, Fab: VH-CH1 with FLAG tag and STREP tag II, VL-CL; VH residue 1 is Q in Fab) VH: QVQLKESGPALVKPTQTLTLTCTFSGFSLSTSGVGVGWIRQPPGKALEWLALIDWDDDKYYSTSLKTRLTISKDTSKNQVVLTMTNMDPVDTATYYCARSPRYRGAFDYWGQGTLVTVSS VL: DIVLTQPPSVSGAPGQRVTISCSGSESNIGSNYVHWYQQLPGTAPKLLIYDNNQRPSGVPDRFSGSKSGTSASLAITGLQSEDEADYYCQSYDYDHYVFGGGTKLTVLG , I see its kon listed as 123000

Per the record, MS-GPC-8-27-7 Fab (Fab, V domains shown, Fab: VH-CH1 with FLAG tag and STREP tag II, VL-CL; VH residue 1 is Q in Fab) VH: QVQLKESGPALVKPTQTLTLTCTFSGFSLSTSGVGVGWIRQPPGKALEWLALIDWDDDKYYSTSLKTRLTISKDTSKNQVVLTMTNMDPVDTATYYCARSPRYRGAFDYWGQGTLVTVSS VL: DIVLTQPPSVSGAPGQRVTISCSGSESNIGNNYVGWYQQLPGTAPKLLIYDNNQRPSGVPDRFSGSKSGTSASLAITGLQSEDEADYYCQSYDMNVHVFGGGTKLTVLG has kon of 174000

kon recorded for this binder, MS-GPC-8 Fab (Fab, V domains shown, Fab from pMx9_Fab: VH-CH1 with FLAG tag and STREP tag II, VL-CL; VH residue 1 is Q in Fab; also called B8-Fab; B8) VH: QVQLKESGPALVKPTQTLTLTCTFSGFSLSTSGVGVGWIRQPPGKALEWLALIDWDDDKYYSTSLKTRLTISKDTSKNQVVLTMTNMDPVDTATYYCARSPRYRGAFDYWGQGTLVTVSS VL: DIVLTQPPSVSGAPGQRVTISCSGSSSNIGSNYVSWYQQLPGTAPKLLIYDNNQRPSGVPDRFSGSKSGTSASLAITGLQSEDEADYYCQSYDMPQAVFGGGTKLTVLG , is 99000

binder MS-GPC-8-6-47 Fab (Fab, V domains shown, Fab: VH-CH1 with FLAG tag and STREP tag II, VL-CL; VH residue 1 is Q in Fab) VH: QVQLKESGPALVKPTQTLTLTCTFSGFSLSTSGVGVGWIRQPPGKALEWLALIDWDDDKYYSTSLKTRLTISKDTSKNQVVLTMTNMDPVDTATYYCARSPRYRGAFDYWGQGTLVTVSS VL: DIVLTQPPSVSGAPGQRVTISCSGSESNIGSNYVSWYQQLPGTAPKLLIYDNNQRPSGVPDRFSGSKSGTSASLAITGLQSEDEADYYCQSYDYDHYVFGGGTKLTVLG , kon observed: 197000
